- system: UniProt P35367
- Sequence (P35367 whole entry): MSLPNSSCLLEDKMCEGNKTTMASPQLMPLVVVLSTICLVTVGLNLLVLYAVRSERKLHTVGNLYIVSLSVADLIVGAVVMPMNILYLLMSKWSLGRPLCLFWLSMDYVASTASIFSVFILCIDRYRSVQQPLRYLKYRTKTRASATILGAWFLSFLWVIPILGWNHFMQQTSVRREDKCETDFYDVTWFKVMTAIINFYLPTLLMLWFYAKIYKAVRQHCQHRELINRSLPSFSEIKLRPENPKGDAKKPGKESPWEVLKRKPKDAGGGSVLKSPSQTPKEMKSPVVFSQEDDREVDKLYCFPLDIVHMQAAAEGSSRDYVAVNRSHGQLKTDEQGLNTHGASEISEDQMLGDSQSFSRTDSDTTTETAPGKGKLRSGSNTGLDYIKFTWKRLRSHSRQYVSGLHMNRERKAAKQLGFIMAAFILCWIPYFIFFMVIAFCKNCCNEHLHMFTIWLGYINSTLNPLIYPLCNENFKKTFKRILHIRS

chemicalString	Ki [µM]
Nc1ncnc2c1ncn2[C@@H]1O[C@H](C(=O)NC2CC2)[C@@H](O)[C@H]1O	7.88

---

- methodSummary: Oral bioavailability in Sprague-Dawley rat at 1 to 10 mg/kg
- Format: ADME, organism-based
- conditionContext: in vivo

chemicalString	bioavailability
OC[C@H]1O[C@@H](n2cnc3c(NC(C4CCC4)C4CCC4)ncnc32)[C@H](O)[C@@H]1O	31 to 43%

---

pKi: −log10 of the molar value.
Read-out record for Translocator protein (Homo sapiens, UniProt P30536): pKi
measuredMetric: pKi

chemicalString	system	experimentalValue
O[C@@H]1[C@H](O)[C@@H](CCl)O[C@H]1n1cnc2c(NC(C3CCC3)C3CCC3)ncnc21	Translocator protein (Homo sapiens, UniProt P30536)	5.40
O[C@H]1[C@H](n2cnc3c(NC(C4CCC4)C4CCC4)nc(Cl)nc32)[C@H]2C[C@@]2(CCl)[C@H]1O	Translocator protein (Homo sapiens, UniProt P30536)	5.54
